- Tested system: c-KIT D816V kinase (Seq ID no. 4) (Homo sapiens, UniProt P10721, D816V)
- Construct: D816V c-KIT (residues T544-V976 with N-terminal GST fusion, 16 nM)
- Sequence (P10721 544-976 D816V): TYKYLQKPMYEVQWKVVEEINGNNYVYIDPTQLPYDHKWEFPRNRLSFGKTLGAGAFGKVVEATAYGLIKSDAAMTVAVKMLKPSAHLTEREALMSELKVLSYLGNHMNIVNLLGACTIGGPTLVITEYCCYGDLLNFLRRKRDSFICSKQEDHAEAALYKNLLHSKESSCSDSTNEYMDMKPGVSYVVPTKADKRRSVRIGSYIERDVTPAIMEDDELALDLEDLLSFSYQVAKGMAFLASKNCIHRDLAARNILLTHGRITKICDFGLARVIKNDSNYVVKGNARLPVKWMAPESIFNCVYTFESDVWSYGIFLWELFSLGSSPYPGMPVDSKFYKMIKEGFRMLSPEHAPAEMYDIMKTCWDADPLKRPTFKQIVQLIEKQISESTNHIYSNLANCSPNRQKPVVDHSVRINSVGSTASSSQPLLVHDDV
- Assay method text: c-KIT D816V kinase Assay
- Particulars: enzymatic assay, ATP 200 uM
pIC50: −log10 of the molar value.
Reported metric: pIC50

What does the data say about its pIC50? Entry: CCn1c(=O)c(-c2cc(NC(=O)Nc3ccccc3)c(F)cc2Br)cc2cnc(NC(C)=O)cc21
> 8.00

Queued: CCn1c(=O)c(-c2cc(NC(=O)Nc3ccccc3)c(F)cc2Cl)cc2cnc(N)cc21
7.00 to 8.00

Queued: CCn1c(=O)c(-c2cc(NC(=O)Nc3ccc(F)c(CN4CCOCC4)c3)c(F)cc2Cl)cc2cnc(NC=O)cc21
< 6.00

Queued: CCn1c(=O)c(-c2cc(NC(=O)Nc3cccc(CN4CCN(C)CC4)c3)c(F)cc2Cl)cc2cnc(NC)cc21
6.00 to 7.00

Queued: CCn1c(=O)c(-c2cc(NC(=O)Nc3ccccc3)c(F)cc2Cl)cc2cnc(NC(=O)[C@@H]3CCCN3)cc21
7.00 to 8.00

Queued: CCn1c(=O)c(-c2cc(NC(=O)Nc3ccccc3)c(F)cc2Cl)cc2cnc(NC3CCOCC3)cc21
7.00 to 8.00

Queued: CCn1c(=O)c(-c2cc(NC(=O)Nc3ccccc3)c(F)cc2Cl)cc2cnc(NC3CCOC3)cc21 (stereo not shown)
7.00 to 8.00

Queued: CCn1c(=O)c(-c2cc(NC(=O)Nc3ccccc3)c(F)cc2F)cc2cnc(NC(=O)CC#N)cc21
6.00 to 7.00

Queued: CCn1c(=O)c(-c2cc(NC(=O)Nc3ccccc3)c(F)cc2Cl)cc2cnc(NCCCN3CCOCC3)cc21
7.00 to 8.00

Queued: CCn1c(=O)c(-c2cc(NC(=O)Nc3ccc(F)c(CN(C)C)c3)c(F)cc2Cl)cc2cnc(NC)cc21
< 6.00

Queued: Cc1cc(F)c(NC(=O)Nc2ccccc2)cc1-c1cc2cnc(NC(=O)N3CCC3)cc2n(C(C)C)c1=O
7.00 to 8.00

Queued: CCn1c(=O)c(-c2cc(NC(=O)Nc3ccccc3)c(F)cc2F)cc2cnc(NC(C)=O)cc21
7.00 to 8.00

Queued: CCn1c(=O)c(-c2cc(NC(=O)Nc3ccccc3)c(F)cc2C#N)cc2cnc(NC)cc21
7.00 to 8.00

Queued: CCn1c(=O)c(-c2cc(NC(=O)Nc3ccccc3)c(F)cc2Cl)cc2cnc(NC3CCN(C)C3)cc21 (stereo not shown)
6.00 to 7.00

Queued: CCn1c(=O)c(-c2cc(NC(=O)Nc3ccccc3)c(F)cc2Cl)cc2cnc(NCCS(C)(=O)=O)cc21
6.00 to 7.00

Queued: CCn1c(=O)c(-c2cc(NC(=O)Nc3ccccc3)c(F)cc2C)cc2cnc(Nc3ccc(C)nc3)cc21
7.00 to 8.00

Queued: CCn1c(=O)c(-c2cc(NC(=O)Nc3ccccc3)c(F)cc2C)cc2cnc(Nc3cnn(C)c3)cc21
> 8.00

Queued: CCn1c(=O)c(-c2cc(NC(=O)Nc3ccc(F)c(CN4CCCC4)c3)c(F)cc2Cl)cc2cnc(NC)cc21
< 6.00

Queued: CCn1c(=O)c(-c2cc(NC(=O)Nc3cc(F)cc(CN4CCN(C)CC4)c3)c(F)cc2Cl)cc2cnc(NC)cc21
6.00 to 7.00

Queued: CCn1c(=O)c(-c2cc(NC(=O)Nc3cccc(Cl)c3)c(F)cc2F)cc2cnc(NC)cc21
7.00 to 8.00

Queued: CCn1c(=O)c(-c2cc(NC(=O)Nc3ccccc3)c(F)cc2Cl)cc2cnc(NC3CCN(C)CC3)cc21
6.00 to 7.00

Queued: CC(=O)Nc1cc2c(cn1)cc(-c1cc(NC(=O)Nc3cccc(F)c3)c(F)cc1Cl)c(=O)n2C(C)C
> 8.00
